assay: small-molecule microarray binders of probe aWnt5a, primary screen, biochemical, biotinylated probe, 635/667 nm fluorescence (AID 1113); settings: higher = more signal;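 further: score merges 667 nm fluorescence intensity with signal-to-noise per printed feature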
VALUE TYPE: composite z-score

STRUCTURE: CCN1C(=O)[C@H]2[C@H]3[C@H](O)[C@H](O)CC(=NOCC(C)C)[C@@H]3CC[C@H]2C1=O
RECORDED VALUE: -0.096
--
STRUCTURE: CCO[C@H](c1cc(OC)cc([N+](=O)[O-])c1OC)[C@H](C)C=CCC(=O)OC
RECORDED VALUE: -0.248
--
STRUCTURE: CO[C@H](C1CCCCC1)[C@H](C)C=CCC(=O)OCCCc1ccccc1
RECORDED VALUE: -0.0874
--
STRUCTURE: CC(C)=CCCC(C)=CCON=C1C[C@@H](O)[C@@H](O)[C@@H]2[C@@H]3C(=O)N(c4ccc(F)cc4F)C(=O)[C@@H]3CC[C@@H]12
RECORDED VALUE: -0.169

* * *

molecular target: Torsin-1A (Homo sapiens) (UniProt O14656); experiment: small-molecule binders of mutant TOR1A in lysate, primary screen, cell lysate, small-molecule microarray, COS7 lysate, 635/667 nm fluorescence (AID 1150); details: COS7 hTOR1A mutant lysate, 635 nm fluorescence, higher = more signal;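 further: score pools 667 nm emission and signal to noise measuring lysate protein binding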
Sequence (O14656 whole entry, looked up): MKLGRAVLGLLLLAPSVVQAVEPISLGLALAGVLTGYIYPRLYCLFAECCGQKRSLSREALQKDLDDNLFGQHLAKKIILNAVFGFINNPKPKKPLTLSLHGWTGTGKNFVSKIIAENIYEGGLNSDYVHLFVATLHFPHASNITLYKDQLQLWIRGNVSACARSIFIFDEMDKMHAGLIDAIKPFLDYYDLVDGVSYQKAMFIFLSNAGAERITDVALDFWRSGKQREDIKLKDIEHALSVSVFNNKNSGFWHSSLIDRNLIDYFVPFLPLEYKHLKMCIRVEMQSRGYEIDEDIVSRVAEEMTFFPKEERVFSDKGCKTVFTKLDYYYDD
This section presents compounds with their documented composite z-score values.

COMPOUND: COc1ccc(O[C@H]2C=C[C@@H](c3ccccc3)O[C@@H]2CON=C(C)CCN2CCc3nc(-c4ccccc4)c(-c4ccccc4)cc3C2)cc1
composite z-score: -0.199

COMPOUND: CCC=CCCC(OC(=O)c1ccc(Br)cc1)C1=CCCCC1=O (stereo not drawn)
composite z-score: 1.87

COMPOUND: CON=C(C)CCC(=O)OC[C@H]1O[C@H](c2ccccc2)C=C[C@@H]1Oc1ccc(OC)cc1
composite z-score: -0.013

COMPOUND: CCN1C(=O)[C@H]2[C@H]3[C@H](O)[C@H](O)CC(=O)[C@@H]3CC[C@H]2C1=O
composite z-score: 0.344

COMPOUND: CCCCC#C[C@@H]1C=C[C@H](OC(C)=O)[C@@H](COC(C)=O)O1
composite z-score: 0.234

COMPOUND: CC(C)=CCCC(C)=CCON=C1C[C@@H](O)[C@@H](O)[C@@H]2[C@@H]3C(=O)N(c4cccc(Oc5ccccc5)c4)C(=O)[C@@H]3CC[C@@H]12
composite z-score: 0.0864

COMPOUND: CCOC(=O)[C@H](Cc1ccccc1)NC(=O)OC1CC(CCC2CC(CC)=NO2)OC2(CCCC(COC(=O)NCCC(C)C)O2)C1 (stereo partly drawn)
composite z-score: 0.225

COMPOUND: CO[C@H]1COC(=O)[C@H](C)NC(=O)[C@@H](C)COC(=O)[C@H]2CCCN2C(=O)CC=C[C@H]1C
composite z-score: 0.182

* * *

test: small-molecule binders of probe aLefty1, primary screen, biochemical, small-molecule microarray, 635/667 nm fluorescence (AID 1153); settings: higher = more signal;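 further: score merges spot fluorescence with signal-to-noise ratio from the scanned slide images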

COMPOUND: COC(=O)[C@H](C)NC(=O)CCC1CC(OC(=O)NCc2ccc3c(c2)OCO3)CC2(CCCC(COC(=O)NCC(c3ccccc3)c3ccccc3)O2)O1 (some centres undefined)
composite z-score: -0.0969

COMPOUND: CCN1C(=O)[C@H]2[C@H]3[C@H](O)[C@H](O)CC(=NO[C@@H](C)c4cn([C@H](CO)Cc5ccccc5)nn4)[C@@H]3CC[C@H]2C1=O
composite z-score: 0.0618

COMPOUND: CCC1=NOC(CCC2CC(OC(=O)NCc3cccc4c3OCO4)CC3(CCCC(COC(=O)NCCc4ccccc4OC)O3)O2)C1 (centres undefined)
composite z-score: -0.0573

COMPOUND: CCOC(=O)[C@H](CC(C)C)NC(=O)CCC1CC(OC(=O)NCc2cccc3ccccc23)CC2(CCCC(COC(=O)NCCc3ccc(Cl)cc3)O2)O1 (some centres undefined)
composite z-score: -0.14

* * *

This section presents compounds with their documented z-score values.
assay: E. coli growth modulation, two-sided OD650, primary screen, E. coli filamentation project, strain DRC41, 24 h (AID 1093); details: OD650, 24 h, higher = more signal, called active from +8 up or from −8 down;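 further: MC1000 strain lacking acrAB efflux and sulA so SOS filamentation is blocked; test concentration not given here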
VALUE TYPE: z-score

COMPOUND: COc1ccc(COC(=O)NN=C2C[C@@H](O)[C@@H](O)[C@@H]3[C@@H]4C(=O)N(c5ccc(F)cc5F)C(=O)[C@@H]4CC[C@H]23)cc1
VALUE TYPE: z-score
RECORDED VALUE: 0.0412
--
COMPOUND: O=C1C[C@@H](O)[C@@H](O)[C@@H]2[C@@H]3C(=O)N(C[C@@H]4CCCO4)C(=O)[C@@H]3CC[C@@H]12
VALUE TYPE: z-score
RECORDED VALUE: 0.48
--
COMPOUND: COC(=O)CC=C[C@@H](C)[C@@H](C=NO[C@@H]1O[C@H](COC(C)=O)[C@@H](OC(C)=O)[C@H](OC(C)=O)[C@H]1OC(C)=O)NS(=O)(=O)c1ccc(C)cc1
VALUE TYPE: z-score
RECORDED VALUE: -1.32
--
COMPOUND: C=CC1=C[C@H](O)[C@@H]2O[C@@H]2C12OCCCO2
VALUE TYPE: z-score
RECORDED VALUE: -0.0339
--
COMPOUND: CCOC(=O)NN=C1C[C@@H](O)[C@@H](O)[C@@H]2[C@@H]3C(=O)N(c4ccc(F)cc4F)C(=O)[C@@H]3CC[C@@H]12
VALUE TYPE: z-score
RECORDED VALUE: 0.783
--
COMPOUND: COc1ccc(O[C@H]2C=C[C@@H](c3ccccc3)O[C@@H]2CON=C2[C@H]3CCn4c(=O)n(-c5ccccc5)c(=O)n4[C@H]3[C@H](O)[C@@H]3O[C@H]23)cc1
VALUE TYPE: z-score
RECORDED VALUE: -0.745
--
COMPOUND: CCCNC(=O)OC[C@H]1O[C@H](CCON=C(C)CCN2CCCc3nc(C)c(C)cc32)C=C[C@@H]1Oc1ccc(OC)cc1
VALUE TYPE: z-score
RECORDED VALUE: 1.05
--
COMPOUND: COC(=O)[C@H](C)NC(=O)CCC1CC(OC(=O)NCCc2ccc(F)cc2)CC2(CCCC(COC(=O)NCc3cccc(C(F)(F)F)c3)O2)O1 (stereo partly specified)
VALUE TYPE: z-score
RECORDED VALUE: 0.723
--
COMPOUND: COc1cccc([C@@H]2Oc3ccc(OC)cc3C(=O)[C@H]2O)c1
VALUE TYPE: z-score
RECORDED VALUE: 0.349
--
COMPOUND: COc1cccc([C@H]2Oc3ccc(OC)cc3C(=NOC[C@@H](C)[C@H](OCc3ccccc3)C(C)C)[C@@H]2O)c1
VALUE TYPE: z-score
RECORDED VALUE: -0.0364
--
COMPOUND: CO[C@H]1COC(=O)[C@H](C)NC(=O)[C@@H](C)COC(=O)[C@H]2CCCN2C(=O)CC=C[C@H]1C
VALUE TYPE: z-score
RECORDED VALUE: 0.492
--
COMPOUND: C#CCCCON=C1C[C@@H](O)[C@@H](O)[C@@H]2[C@@H]3C(=O)N(CCC(=O)OCC)C(=O)[C@@H]3CC[C@H]12
VALUE TYPE: z-score
RECORDED VALUE: 0.299
--
COMPOUND: CC(CCN1CCCCc2nc(C)c(C)cc21)=NO[C@H](C)c1cn([C@H](CO)Cc2ccccc2)nn1
VALUE TYPE: z-score
RECORDED VALUE: -0.425
--
COMPOUND: O=C(NN=C1C[C@@H](O)[C@@H](O)[C@@H]2[C@@H]3C(=O)N(C4CCCCC4)C(=O)[C@@H]3CC[C@H]12)OCc1ccccc1
VALUE TYPE: z-score
RECORDED VALUE: -0.0442
--
COMPOUND: O=C1[C@H]2[C@H]3[C@H](O)[C@H](O)CC(=NOCc4ccccc4)[C@H]3CC[C@H]2C(=O)N1Cc1ccc2c(c1)OCO2
VALUE TYPE: z-score
RECORDED VALUE: 1.26
--
COMPOUND: CC(C)CON=C1C[C@@H](O)[C@@H](O)[C@@H]2[C@@H]3C(=O)N(c4cccc(Oc5ccccc5)c4)C(=O)[C@@H]3CC[C@@H]12
VALUE TYPE: z-score
RECORDED VALUE: -0.961
--
COMPOUND: CC[C@@H](c1ccccc1)n1c(=O)n2n(c1=O)[C@H]1[C@H](O)[C@@H]3O[C@@H]3C(=NOC[C@@H](O)COCc3ccco3)[C@H]1CC2
VALUE TYPE: z-score
RECORDED VALUE: 0.568
--
COMPOUND: CO[C@H]1COC(=O)CC=C[C@H](C)COC(=O)[C@@H](C)NC(=O)CC=C[C@@H]1C
VALUE TYPE: z-score
RECORDED VALUE: 0.0007
--
COMPOUND: CCCCC#C[C@@H]1C=C[C@H](OC(C)=O)[C@@H](COC(C)=O)O1
VALUE TYPE: z-score
RECORDED VALUE: 0.325
--
COMPOUND: COc1ccc(COC(=O)NN=C2C[C@@H](O)[C@@H](O)[C@@H]3[C@@H]4C(=O)N(Cc5ccccc5)C(=O)[C@@H]4CC[C@H]23)cc1
VALUE TYPE: z-score
RECORDED VALUE: -0.289
--
COMPOUND: CO[C@@H]1COC(=O)CC=C[C@@H](C)[C@@H]2C=C[C@H](O)[C@@H](COC(=O)CC=C[C@H]1C)O2
VALUE TYPE: z-score
RECORDED VALUE: 0.713
--
COMPOUND: CO[C@H]1COC(=O)CCC[C@@H](C)[C@H](OC)COC(=O)[C@@H](C)NC(=O)CC=C[C@@H]1C
VALUE TYPE: z-score
RECORDED VALUE: -0.597
--
COMPOUND: O=C1C[C@@H](O)[C@@H](O)[C@@H]2[C@@H]3C(=O)N(C[C@@H]4CCCO4)C(=O)[C@@H]3CC[C@H]12
VALUE TYPE: z-score
RECORDED VALUE: 0.701
--
COMPOUND: CCOC(=O)[C@H](CC(C)C)NC(=O)CCC1CC(OC(=O)NCc2ccc3c(c2)OCO3)CC2(CCCC(COC(=O)NCCCN3CCCC3=O)O2)O1 (stereo partly specified)
VALUE TYPE: z-score
RECORDED VALUE: 0.485
--
COMPOUND: CO[C@@H]1COC(=O)CC=C[C@@H](C)[C@H](OC)COC(=O)[C@@H](C)COC(=O)CC=C[C@H]1C
VALUE TYPE: z-score
RECORDED VALUE: 0.421
--
COMPOUND: O=C1CCCC(C2=CCCCC2=O)C1 (stereo unspecified)
VALUE TYPE: z-score
RECORDED VALUE: 0.455
